Listing of entries alongside the reported melting point.

Examples from the recorded data:
> print(dat)
                                   compound  measured.endpoint  recorded.result
1  CN1C(=O)c2ccccc2C2(CC(=O)NC2=O)C1=O (centres undefined)      melting point    224 to 225 °C
2         COc1cc2c(cc1O)CCN(Cc1cccc(C)c1)C2      melting point    128 to 129 °C
3  CCOC(=O)c1cccc2c1c(C(=O)C(=O)NC1=CC(=O)OC1)cn2Cc1ccc(Cl)cc1      melting point    242 to 244 °C
4  CCCNC(=O)c1nc(-c2ccccc2)c(-c2ccc(=O)n(C(C)C)n2)s1      melting point    141 to 142 °C
5  COc1ccc(OC)c(S(=O)(=O)n2c(COC(C)(C)C(=O)O)cc3nc(Cl)ccc32)c1      melting point           200 °C

Field request: melting point | item: CCC=CCn1c(=O)sc2c(=O)n(N)c(N)nc21
137 to 139 °C

Field request: melting point | item: CCOC(=O)c1cn(Cc2ccc(OCc3nc(-c4ccccc4)oc3C)cc2)nc1-c1cccs1
113 to 114 °C

Field request: melting point | item: CCOCc1nc2c(N)nc3cc(Br)ccc3c2n1CC1CCOCC1
186 to 188 °C
